- system_under_test: human PAH with the R408W mutation (Homo sapiens, UniProt P00439, R408W)
- Construct: expressed in transfected cells
- Sequence (P00439 whole entry R408W): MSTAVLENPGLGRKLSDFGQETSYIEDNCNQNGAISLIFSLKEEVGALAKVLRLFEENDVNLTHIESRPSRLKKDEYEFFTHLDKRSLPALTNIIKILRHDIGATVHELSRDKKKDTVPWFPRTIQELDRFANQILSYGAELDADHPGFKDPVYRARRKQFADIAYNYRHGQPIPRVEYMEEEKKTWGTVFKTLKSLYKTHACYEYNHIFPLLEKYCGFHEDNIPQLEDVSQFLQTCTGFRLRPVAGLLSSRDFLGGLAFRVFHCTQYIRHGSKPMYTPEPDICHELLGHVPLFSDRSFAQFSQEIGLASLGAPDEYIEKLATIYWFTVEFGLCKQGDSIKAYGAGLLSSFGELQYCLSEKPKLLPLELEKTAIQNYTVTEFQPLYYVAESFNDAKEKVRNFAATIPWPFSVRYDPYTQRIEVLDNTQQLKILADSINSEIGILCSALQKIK
- test_method_notes: Cell Based Phenylalanine Flux Assay
- conditions_used: A375 cells expressing human R408W PAH; 24 hrs with compound; 13C-Tyrosine by LC-MS; average where tested multiple times; read-out: AC50
recorded_metric: AC50

Here's what some known entries look like.
| compound | recorded_metric | recorded_value |
| --- | --- | --- |
| CC1CN(C(=O)c2nnc(C(C)(C)O)o2)C(c2nc3ccccc3s2)c2nc[nH]c21 (stereo not drawn) | AC50 | 1 to 5 µM |
| O=C(c1cnn2ccccc12)N1CCc2[nH]cnc2C1c1nc2ccc(F)cc2[nH]1 (stereo not drawn) | AC50 | 1 to 5 µM |
| Cc1nc(C(C)(C)O)oc1C(=O)N1CC2(CC2)c2[nH]cnc2C1c1nc2ccccc2s1 (stereo not drawn) | AC50 | 1 to 5 µM |

Challenge: Please report the measured AC50 for O=C(C1CC1F)N1CCc2[nH]cnc2C1c1nc2ccccc2s1 (stereo not drawn)
Response given: > 5 µM

Challenge: Please report the measured AC50 for O=C(c1cn[nH]c1)N1CCc2nc[nH]c2C1c1nc2c(F)cccc2s1 (stereo not drawn)
Response given: > 5 µM

Challenge: Please report the measured AC50 for O=C(c1nsc2ccccc12)N1CCc2[nH]cnc2C1c1nc2ccccc2s1 (stereo not drawn)
Response given: 1 to 5 µM

Challenge: Please report the measured AC50 for Cc1nnc(CCC(=O)N2CCc3[nH]cnc3C2c2nc3c(F)cccc3s2)s1 (stereo not drawn)
Response given: > 5 µM

Challenge: Please report the measured AC50 for COc1ccc2c(C(=O)N3CCc4[nH]cnc4C3c3nc4ccccc4s3)cnn2c1 (stereo not drawn)
Response given: > 5 µM

Challenge: Please report the measured AC50 for O=C(c1ccn[nH]1)N1CCc2[nH]cnc2C1c1nc2c(F)cccc2s1 (stereo not drawn)
Response given: 1 to 5 µM

Challenge: Please report the measured AC50 for Cn1ncnc1C(=O)N1CCc2[nH]cnc2C1c1nc2c(F)cccc2s1 (stereo not drawn)
Response given: 1 to 5 µM

----------
- system_under_test: human PAH with the R408W mutation (Homo sapiens, UniProt P00439, R408W)
- Construct: expressed in transfected cells
- test_method_notes: Cell Based Phenylalanine Flux Assay
- conditions_used: A375 cells expressing human R408W PAH; 24 hrs compound incubation; 13C-Tyrosine by LC-MS; average where tested multiple times; read-out: AC50
recorded_metric: AC50

Challenge: Please report the measured AC50 for "Cc1nc(CCCN2CC(F)C2)oc1C(=O)N1CCc2[nH]cnc2[C@H]1c1nc2ccccc2s1"
Response given: 500 to 1000 nM

Challenge: Please report the measured AC50 for "O=C(c1nnc(-c2c[nH]nc2C(F)(F)F)o1)N1CCc2[nH]cnc2[C@H]1c1nc2ccccc2s1"
Response given: 500 to 1000 nM

----------
# AC50 per entry
- system_under_test: human PAH with the R408W mutation (Homo sapiens, UniProt P00439, R408W)
- Construct: expressed in transfected cells
- test_method_notes: Cell Based Phenylalanine Flux Assay
- conditions_used: A375 cells expressing human R408W PAH; 24 hrs compound incubation; 13C-Tyrosine by LC-MS; average where tested multiple times; read-out: AC50

Here's what some known entries look like.
| molecular_string | AC50 |
| --- | --- |
| O=C(c1ccn2ncccc12)N1CCc2[nH]cnc2[C@@H]1c1nc2ccccc2s1 | > 5 µM |
| O=C(CC1CC1)N1CCc2[nH]cnc2[C@@H]1c1nc2cc(F)ccc2s1 | 1 to 5 µM |

Please turn your attention to the following entry.
Challenge: For human PAH with the R408W mutation (Homo sapiens, UniProt P00439, R408W), give the measured AC50 of the entry "Cc1nnc(C(=O)N2CCc3[nH]cnc3[C@H]2c2nc3c(F)cccc3s2)s1"
Response given: 1 to 5 µM
